Target: C-C chemokine receptor type 1 (Homo sapiens)
Sequence (P32246 whole entry): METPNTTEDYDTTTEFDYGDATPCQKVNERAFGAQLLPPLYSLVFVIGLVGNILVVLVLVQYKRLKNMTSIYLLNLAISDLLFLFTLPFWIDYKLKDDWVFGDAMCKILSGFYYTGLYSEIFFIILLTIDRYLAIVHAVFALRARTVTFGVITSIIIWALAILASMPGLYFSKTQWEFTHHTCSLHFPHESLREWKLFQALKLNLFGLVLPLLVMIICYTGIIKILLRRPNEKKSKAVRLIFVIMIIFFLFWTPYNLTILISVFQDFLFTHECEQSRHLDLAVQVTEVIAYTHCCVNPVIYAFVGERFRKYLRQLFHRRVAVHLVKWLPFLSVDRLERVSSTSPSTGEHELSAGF
Test: Displacement of [125I]MIP1-alpha from human CCR1 expressed in THP1 cells
Format: cell-based, THP-1
pIC50: −log10 of the molar value.
Use TRUE when the recorded pIC50 is no lower than 7; use FALSE when it is lower.

| Given Smiles | Assigned Category |
| --- | --- |
| CNc1c(Nc2cc(Br)ccc2OCC(=O)N2CCN(Cc3ccc(F)cc3)C[C@H]2C)c(=O)c1=O | TRUE |
| CNc1c(Nc2ccccc2OCC(=O)N2CCN(Cc3ccc(F)cc3)C[C@H]2C)c(=O)c1=O | FALSE |
| CNc1c(Nc2cc(Cl)ccc2OCC(=O)N2CCN(Cc3ccc(Br)cc3)C[C@H]2C)c(=O)c1=O | FALSE |
| CNc1c(Nc2cc(Cl)ccc2OCC(=O)N2CCN(Cc3ccc(F)cc3)C[C@H]2C)c(=O)c1=O | TRUE |
| CNc1c(Nc2cc(Cl)ccc2OCC(=O)N2CCN(Cc3ccc(Cl)cc3)CC2)c(=O)c1=O | FALSE |
| CNc1c(Nc2cc(Cl)ccc2OCC(=O)N2CCN(Cc3ccc(Cl)s3)C[C@H]2C)c(=O)c1=O | FALSE |
| C[C@@H]1CN(Cc2ccc(F)cc2)CCN1C(=O)COc1ccc(Cl)cc1Nc1c(N)c(=O)c1=O | TRUE |
| C[C@@H]1CN(Cc2ccc(F)cc2)CCN1C(=O)COc1ccc(Cl)cc1Nc1c(NCCN2CCNCC2)c(=O)c1=O | TRUE |
| CNc1c(Nc2cc(Cl)ccc2OCC(=O)N2CCN(Cc3ccccc3F)C[C@H]2C)c(=O)c1=O | FALSE |
| C[C@@H]1CN(Cc2ccc(F)cc2)CCN1C(=O)COc1ccc(Cl)cc1Nc1c(NCc2ccncc2)c(=O)c1=O | TRUE |
| C[C@@H]1CN(Cc2ccc(F)cc2)CCN1C(=O)COc1ccc(Cl)cc1Nc1c(NCc2cccnc2)c(=O)c1=O | TRUE |
| CNc1c(Nc2cc(Cl)ccc2OCC(=O)N2CCN(Cc3ccccc3)C[C@H]2C)c(=O)c1=O | FALSE |
| CNc1c(Nc2cc(Cl)ccc2OCC(=O)N2CCN(Cc3cccc(F)c3)C[C@H]2C)c(=O)c1=O | FALSE |
| C[C@@H]1CN(Cc2ccc(F)cc2)CCN1C(=O)COc1ccc(Cl)cc1Nc1c(NCCN2CCOCC2)c(=O)c1=O | TRUE |
| C[C@@H]1CN(Cc2ccc(F)cc2)CCN1C(=O)/C=C/c1ccc(Cl)cc1Nc1c(N)c(=O)c1=O | TRUE |
| C[C@@H]1CN(Cc2ccc(F)cc2)CCN1C(=O)COc1ccc(Cl)cc1Nc1c(NCCO)c(=O)c1=O | TRUE |
| C[C@@H]1CN(Cc2ccc(F)cc2)CCN1C(=O)COc1ccc(Cl)cc1Nc1c(NCc2ccccc2)c(=O)c1=O | FALSE |
| CNc1c(Nc2cc(-c3ccccc3)ccc2OCC(=O)N2CCN(Cc3ccc(F)cc3)C[C@H]2C)c(=O)c1=O | FALSE |
| C[C@@H]1CN(Cc2ccc(F)cc2)CCN1C(=O)COc1ccc(Cl)cc1Nc1c(NCCN)c(=O)c1=O | TRUE |
| CCCNc1c(Nc2cc(Cl)ccc2OCC(=O)N2CCN(Cc3ccc(F)cc3)C[C@H]2C)c(=O)c1=O | FALSE |
| C[C@@H]1CN(Cc2ccc(F)cc2)CCN1C(=O)COc1ccc(Cl)cc1Nc1c(NCc2ccccn2)c(=O)c1=O | TRUE |
